This listing pairs compounds with measured %Inh.
System: CSF1R-autoinhibited
Settings: concentration: 1 μM, replicates: in singlicate; n = 1
Note: unit % is implicit; provide only the numeric part.

// below: answered compounds
{"Compound": "c1ccc(Oc2ccc(Nc3ccnc4cc(-c5ccc(CNCCN6CCOCC6)o5)ccc34)cc2)nc1", "Reported Property": "%Inh", "Number": 40}
{"Compound": "COc1ccc(CNC(=O)NC2CCN(c3ccnc(Nc4ccc(F)cc4)n3)CC2)cc1", "Reported Property": "%Inh", "Number": 19}
{"Compound": "CCn1c(-c2nonc2N)nc2c(C#CC(C)(C)O)nc(OC[C@H](N)c3ccccc3)cc21", "Reported Property": "%Inh", "Number": 0}

Req: # value lookup — system CSF1R-autoinhibited, readout %Inh, item `Nc1ncc(-c2cccnc2)c2scc(-c3ccc4c(c3)CCN4C(=O)Cc3ccccc3)c12`
Resp: 5

Req: Requested read-out %Inh, target or system CSF1R-autoinhibited, entry `C[C@@H](Oc1cc(-n2cnc3cc(-c4ccnc(NCCS(C)(=O)=O)c4)ccc32)sc1C(N)=O)c1ccccc1Cl`
Resp: 1

Req: Please state recorded %Inh (tested on CSF1R-autoinhibited) of `Cc1ccc(C(=O)Nc2ccc(Nc3ccnc4cc(-c5nccs5)ccc34)cc2O)cc1.Cl`;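 note: KINOMEscan kinase panel screen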
Resp: 44

Req: Kindly state the measured %Inh obtained for `O=C(Nc1n[nH]c2cc(-c3ccoc3)ccc12)C1CC1` with CSF1R-autoinhibited.
Resp: 0

Req: Look up %Inh with CSF1R-autoinhibited for this compound: `O=C(O)C(F)(F)F.O=C(O)C(F)(F)F.O=c1[nH]ccc2nc(N[C@@H]3CCCNC3)nc(Nc3ccc(S(=O)(=O)N4CCOCC4)cc3)c12`
Resp: 83
